Listed compounds paired with reported RP-LC retention time
method.notes: gradient 5% acetonitrile 3 min, to 50% in 2 min, to 85% in 15 min, held 3 min, 100 µL/min
applied.conditions: column: Zorbax Extend-C18 2.1 x 50 mm; eluents: water / acetonitrile, 0.1% formic acid
measurement.kind: RP-LC retention time

compound: CCOc1cccc(-c2noc(Cn3c(=O)n(Cc4ccc(F)cc4)c(=O)c4sccc43)n2)c1
result: 1210 s

compound: O=C(CCc1c(-c2ccccc2)nc2ccccn12)Nc1ccccc1Cl
result: 668 s

compound: O=C(NCCc1ccccc1)NC(c1ccccc1)c1nnc(-c2ccccc2)o1 (centres undefined)
result: 876 s

compound: Cc1nn(C)cc1CN(C)C(=O)CCC1CCCN(c2cc(NC3CC3)ncn2)C1 (centres undefined)
result: 597 s

compound: O=C(C1CCCN1)N1CCC(OCc2nc(-c3cccnc3)no2)CC1 (centres undefined)
result: 572 s

compound: Cc1ccc(S(=O)(=O)Nc2ccc3c(c2)CCC(=O)N3CC(C)C)cc1
result: 887 s

compound: COc1ccccc1C(=O)N1CCC(c2cc3n(n2)CCCNC3=O)CC1
result: 596 s

compound: CCC1CN(C(=O)Nc2ccccc2)c2ccccc2O1 (centres undefined)
result: 1020 s

compound: COc1cc(CCC(=O)N2C[C@@H](C(N)=O)[C@H](c3nc(C)no3)C2)on1
result: 600 s

* * *

method.notes: gradient 5% acetonitrile 3 min, to 50% in 2 min, to 85% in 15 min, held 3 min, 100 µL/min
applied.conditions: column: Zorbax Extend-C18 2.1 x 50 mm; eluents: water / acetonitrile, 0.1% formic acid
# true = RP-LC retention time below 800 s (exclusive); false = RP-LC retention time at/above 800 s

compound: CCOC(=O)c1[nH]c(C)c(CN(Cc2ccco2)C(=O)Nc2ccccc2)c1C
label: false
//
compound: CN(C(=O)Cc1ccsc1)C1CCc2nn(C)c(=O)n2CC1 (stereo not given)
label: true
//
compound: O=C(NCCc1ccccc1)C1CCCN(C(=O)c2cc(-c3ccccn3)n[nH]2)C1 (stereo not given)
label: true
//
compound: O=C(NCc1ccccn1)C1CCc2sc(C(=O)N3CCCCC3)cc2C1 (stereo not given)
label: true
//
compound: CN(C)CC(=O)N1CC(c2nc(-c3ccc(F)cc3)no2)C2(CCOCC2)C1 (stereo not given)
label: true
//
compound: Cc1cccc(N2CCN(C(=S)Nc3ccc4nc(N5CCN(C)CC5)cc(C)c4c3)CC2)c1C
label: true
//
compound: COc1ccccc1N1C(=O)CC(N2CCC(C(N)=O)CC2)C1=O (stereo not given)
label: true
//
compound: CCCNc1cc(-n2nc(C)cc2C)ncn1
label: true
//
compound: Cc1cc(C)cc(NC(=O)Cn2nc(N3CCSCC3)c3ccccc3c2=O)c1
label: false
//
compound: Cc1ccc2c(Nc3cccc(Cl)c3)c(C(=O)N3CCOCC3)cnc2n1
label: true
//
compound: O=C(NCc1cccnc1)C1(CCO)CCN(c2ncccn2)C1 (stereo not given)
label: true
//
compound: COc1cc(=O)n(-c2ccccc2)nc1C(=O)NC(c1ccccc1)c1ccccc1
label: false
//
compound: CCc1c(C2CCN(C(=O)Nc3ccc(F)c(Cl)c3)CC2)noc1N
label: false
//
compound: Cc1ccc(CNC(=O)c2nnc(-c3ccc(S(=O)(=O)N(C)C)cc3)o2)cc1
label: false
//
compound: CC(C)(C)NS(=O)(=O)CCNC(=O)c1ccccc1
label: true
//
compound: Cc1cc(C)cc(C(=O)N2CC=C(C(=O)NC3CC3)CC2)c1
label: true
//
compound: CC(C)c1ccc(-n2c3c(cc(C(=O)N4CCOCC4)c2=O)C(=O)CCC3)cc1
label: true
//
compound: COc1ccc(-c2cc(C(=O)NC3CCCCC3)nn2C2CCS(=O)(=O)C2)cc1 (stereo not given)
label: false
//
compound: O=C1C(OC2CCN(Cc3cc(F)ccc3F)CC2)CCN1C1CCCC1 (stereo not given)
label: true
//
compound: COc1cccc2c1OC1(C)CC2C(S(=O)(=O)c2ccc(C(C)(C)C)cc2)C(=O)N1 (stereo not given)
label: false
//
compound: C=Cc1ccc(Cn2nc3ccc(S(=O)(=O)N4CCC(C)CC4)cn3c2=O)cc1
label: false
//
compound: Cc1cccc(N2CCN(C(=O)Cn3ccc4ccc(N5CCOCC5)nc43)CC2)c1
label: false
//
compound: CC1(C)C(=O)N(CC(=O)Nc2cccc(Cl)c2)c2ccccc21
label: false
//
compound: CCCCN(C)C(=O)Cn1c(=O)c(S(=O)(=O)c2ccccc2)cc2ccccc21
label: false
//
compound: Cc1cc(C)cc(-c2nnc(Cc3nc(-c4ccc(Cl)cc4)no3)o2)c1
label: false
//
compound: Cc1ccsc1C(=O)Nc1ccc(-c2nc(-c3ccccc3)co2)cc1
label: false
//
compound: COc1cccc(CNC(=O)Cn2c(C)nc3onc(C)c3c2=O)c1
label: true
//
compound: COc1ccc(C(=O)NCc2ccc(OCCN(C)C)cc2)cc1OC
label: true
//
compound: Cc1cnn(CC(=O)N2CCc3nn(CC4CC4)c(=O)n3CC2)c1
label: true
//
compound: CC1=C(c2ccc(F)cc2)S(=O)(=O)N=C1N1CCCN(C(=O)c2ccco2)CC1
label: true
//
compound: CCc1ccc(N2C(=O)CN(S(C)(=O)=O)CC2(C)C(=O)NCc2ccc(F)cc2)cc1 (stereo not given)
label: false
